Overview of reported CC50 across a group of molecules:
- assay.procedure: Cytotoxicity against mouse EL4.3 cells assessed as reduction in cell viability by MTT assay
- Format: cell-based

Problem: Name the reported CC50 value associated with the molecule CCc1c(CCO)nnn1Cc1cccc(C#N)c1
Result: > 100 µM

Problem: CCc1nnn(Cc2ccccc2)c1CCO , same question.
Result: > 100 µM

Problem: Same for OCc1cn(Cc2ccccc2)nn1
Result: > 100 µM

Problem: Now consider N#Cc1cccc(Cn2cc(CCO)nn2)c1 and answer again.
Result: > 100 µM

Problem: Please answer likewise for Cc1cc(C)cc(Cn2cc(CO)nn2)c1
Result: > 100 µM

Problem: Please do the same for CCc1c(CCO)nnn1Cc1cc(Cl)cc(Cl)c1 as well.
Result: > 100 µM

Problem: And then CCc1nn(CCO)nc1Cc1cc(Cl)cc(Cl)c1 , what is it?
Result: 84.7 µM

----------
- assay.procedure: Cytotoxicity against mouse EL4.3 cells assessed as reduction in cell viability by MTT assay
- Assay type: cell-based
endpoint.label: CC50

CCc1c(CCO)nnn1Cc1ccccc1; > 100 µM

Problem: Look up CC50: CCc1nnn(Cc2cc(C)cc(C)c2)c1CCO
Result: > 100 µM

Problem: Please give the result for CCc1nn(CC)nc1C(OC)c1cc(Cl)cc(Cl)c1 (stereo not drawn) too.
Result: 89 µM

----------
- assay.procedure: Cytotoxicity against mouse EL4.3 cells assessed as reduction in cell viability by MTT assay
- Format: cell-based
endpoint.label: CC50

CCc1nn(CCO)nc1C(OC)c1cc(Cl)cc(Cl)c1 (stereo unspecified); 95.1 µM
CCc1nn(CCO)nc1Cc1cccc(C#N)c1; > 100 µM
OCc1cn(Cc2cc(C(F)(F)F)cc(C(F)(F)F)c2)nn1; > 53.4 µM
CCc1nnn(Cc2cc(Cl)cc(Cl)c2)c1CCO; > 100 µM
CCc1nnn(Cc2cccc(C#N)c2)c1CCO; > 100 µM

Here is another compound to look at.
Problem: Which CC50 value is on record for CCc1nn(CCO)nc1Cc1cc(C)cc(C)c1 ?
Result: > 100 µM
